Assay: PermeaPad + mucus permeability assay (cystic fibrosis mucus model on PermeaPad 96-well plate)
Type: in vitro ADME
Conditions: not told; PermeaPad + mucus model; donor 100 or 500 µM in 10 mM PB pH 7.4, 5% DMSO; single timepoint 5 h; mean (±SD), n>=3; read-out: Papp mucus ± SD • 10^6
Response field label: string, one of True (Papp at 5 h strictly below 0.8 ×10⁻⁶ cm/s) or False.

Input CCN(CC)CCOC(=O)c1ccc(N)cc1 [Procaine] ; condition: Papp at 5 h strictly below 0.8 ×10⁻⁶ cm/s. Does it hold? True

Same for CCOC(=O)C1=C(COCCN)NC(C)=C(C(=O)OC)C1c1ccccc1Cl (centres unmarked) [Amlodipine] True

Same for CC(C)(C)NC(=O)[C@@H]1C[C@@H]2CCCC[C@@H]2CN1C[C@@H](O)[C@H](Cc1ccccc1)NC(=O)[C@H](CC(N)=O)NC(=O)c1ccc2ccccc2n1 [Saquinavir] True

Same for Nc1nc2c(ncn2COCCO)c(=O)[nH]1 [Acyclovir] False

Same for CCn1cc(C(=O)O)c(=O)c2cc(F)c(N3CCNCC3)cc21 [Norfloxacin] False

Same for CC(=O)Nc1ccc(O)cc1 [Acetaminophen] False

Same for COC(=O)N[C@H](C(=O)N[C@@H](Cc1ccccc1)[C@@H](O)CN(Cc1ccc(-c2ccccn2)cc1)NC(=O)[C@@H](NC(=O)OC)C(C)(C)C)C(C)(C)C [Atazanavir] True

Same for O=C(O)c1ccccc1O [Salicylic acid] False

----------
Test: PermeaPad 96-well plate permeability assay (absence of mucus)
Format: in vitro ADME
Conditions: not told, pH 7.4, PermeaPad without mucus; donor 100 or 500 µM in 10 mM PB pH 7.4, 5% DMSO; single timepoint 5 h; mean (±SD), n>=3; read-out: Papp ± SD • 10^6
Give Papp at 5 h for every item shown.
Please state the value followed by its unit.

Suppose we examine the molecule CCN(CC)CCOC(=O)c1ccc(N)cc1 ; what Papp at 5 h value has been reported? 2.67 ×10⁻⁶ cm/s

Same for CO[C@H]1/C=C/O[C@@]2(C)Oc3c(C)c(O)c4c(O)c(c5c(nc6cc(C)ccn65)c4c3C2=O)NC(=O)/C(C)=C\C=C\[C@H](C)[C@H](O)[C@@H](C)[C@@H](O)[C@@H](C)[C@H](OC(C)=O)[C@@H]1C 0.09 ×10⁻⁶ cm/s

Same for O=C(O)c1ccccc1O 2.71 ×10⁻⁶ cm/s

Same for CC(C)Cc1ccc(C(C)C(=O)O)cc1 (stereo not shown) 0.94 ×10⁻⁶ cm/s

Same for CCOC(=O)C1=C(COCCN)NC(C)=C(C(=O)OC)C1c1ccccc1Cl (stereo not shown) 0.66 ×10⁻⁶ cm/s

Same for CCn1cc(C(=O)O)c(=O)c2cc(F)c(N3CCNCC3)cc21 1.7 ×10⁻⁶ cm/s

Same for CC(C)(C)NCC(O)c1ccc(O)c(CO)c1 (stereo not shown) 2.34 ×10⁻⁶ cm/s

Same for NC(=O)c1nc(F)c[nH]c1=O 5.15 ×10⁻⁶ cm/s

Same for Nc1nc2c(ncn2COCCO)c(=O)[nH]1 2.17 ×10⁻⁶ cm/s

Same for CC(C)(C)NC(=O)[C@@H]1C[C@@H]2CCCC[C@@H]2CN1C[C@@H](O)[C@H](Cc1ccccc1)NC(=O)[C@H](CC(N)=O)NC(=O)c1ccc2ccccc2n1 0.08 ×10⁻⁶ cm/s
